Just for reference, patent US8541588B2 is where these values come from.

I'd be grateful if you could share measured IC50 for these entries.
- measurement_target: Nav1.7 (or SCN9A) channel; HEK cells stably transfected with hSCN9A (Homo sapiens)
- Construct: expressed in transfected cells
- protocol: Nav1.7 block, PatchXpress 7000 automated whole-cell voltage clamp, estimated IC50 (EIC50)
- Type: cell-based
- condition: estimated IC50; hSCN9A HEK cells, PatchXpress platform; Examples 815-1040

query_smiles	measurement_target	IC50
N#Cc1cc(S(=O)(=O)Nc2ncc(Cl)s2)ccc1Oc1ccc(F)cc1-c1cccc(N)n1	Nav1.7 (or SCN9A) channel; HEK cells stably transfected with hSCN9A (Homo sapiens)	>0.01 µM

# per-item lookup of IC50; items listed below
1. Cn1nccc1-c1cc(Cl)ccc1Oc1ccc(S(=O)(=O)Nc2cc[nH]n2)cc1C#N
2. Cn1nccc1-c1cc(Cl)ccc1Oc1ccc(S(=O)(=O)Nc2cncnc2)cc1C#N

1. >10 µM
2. >30 µM

====

- measurement_target: Nav1.7 (or SCN9A) channel; HEK cells stably transfected with hSCN9A (Homo sapiens, UniProt Q15858)
- Construct: expressed in transfected cells
- Sequence (Q15858 whole entry): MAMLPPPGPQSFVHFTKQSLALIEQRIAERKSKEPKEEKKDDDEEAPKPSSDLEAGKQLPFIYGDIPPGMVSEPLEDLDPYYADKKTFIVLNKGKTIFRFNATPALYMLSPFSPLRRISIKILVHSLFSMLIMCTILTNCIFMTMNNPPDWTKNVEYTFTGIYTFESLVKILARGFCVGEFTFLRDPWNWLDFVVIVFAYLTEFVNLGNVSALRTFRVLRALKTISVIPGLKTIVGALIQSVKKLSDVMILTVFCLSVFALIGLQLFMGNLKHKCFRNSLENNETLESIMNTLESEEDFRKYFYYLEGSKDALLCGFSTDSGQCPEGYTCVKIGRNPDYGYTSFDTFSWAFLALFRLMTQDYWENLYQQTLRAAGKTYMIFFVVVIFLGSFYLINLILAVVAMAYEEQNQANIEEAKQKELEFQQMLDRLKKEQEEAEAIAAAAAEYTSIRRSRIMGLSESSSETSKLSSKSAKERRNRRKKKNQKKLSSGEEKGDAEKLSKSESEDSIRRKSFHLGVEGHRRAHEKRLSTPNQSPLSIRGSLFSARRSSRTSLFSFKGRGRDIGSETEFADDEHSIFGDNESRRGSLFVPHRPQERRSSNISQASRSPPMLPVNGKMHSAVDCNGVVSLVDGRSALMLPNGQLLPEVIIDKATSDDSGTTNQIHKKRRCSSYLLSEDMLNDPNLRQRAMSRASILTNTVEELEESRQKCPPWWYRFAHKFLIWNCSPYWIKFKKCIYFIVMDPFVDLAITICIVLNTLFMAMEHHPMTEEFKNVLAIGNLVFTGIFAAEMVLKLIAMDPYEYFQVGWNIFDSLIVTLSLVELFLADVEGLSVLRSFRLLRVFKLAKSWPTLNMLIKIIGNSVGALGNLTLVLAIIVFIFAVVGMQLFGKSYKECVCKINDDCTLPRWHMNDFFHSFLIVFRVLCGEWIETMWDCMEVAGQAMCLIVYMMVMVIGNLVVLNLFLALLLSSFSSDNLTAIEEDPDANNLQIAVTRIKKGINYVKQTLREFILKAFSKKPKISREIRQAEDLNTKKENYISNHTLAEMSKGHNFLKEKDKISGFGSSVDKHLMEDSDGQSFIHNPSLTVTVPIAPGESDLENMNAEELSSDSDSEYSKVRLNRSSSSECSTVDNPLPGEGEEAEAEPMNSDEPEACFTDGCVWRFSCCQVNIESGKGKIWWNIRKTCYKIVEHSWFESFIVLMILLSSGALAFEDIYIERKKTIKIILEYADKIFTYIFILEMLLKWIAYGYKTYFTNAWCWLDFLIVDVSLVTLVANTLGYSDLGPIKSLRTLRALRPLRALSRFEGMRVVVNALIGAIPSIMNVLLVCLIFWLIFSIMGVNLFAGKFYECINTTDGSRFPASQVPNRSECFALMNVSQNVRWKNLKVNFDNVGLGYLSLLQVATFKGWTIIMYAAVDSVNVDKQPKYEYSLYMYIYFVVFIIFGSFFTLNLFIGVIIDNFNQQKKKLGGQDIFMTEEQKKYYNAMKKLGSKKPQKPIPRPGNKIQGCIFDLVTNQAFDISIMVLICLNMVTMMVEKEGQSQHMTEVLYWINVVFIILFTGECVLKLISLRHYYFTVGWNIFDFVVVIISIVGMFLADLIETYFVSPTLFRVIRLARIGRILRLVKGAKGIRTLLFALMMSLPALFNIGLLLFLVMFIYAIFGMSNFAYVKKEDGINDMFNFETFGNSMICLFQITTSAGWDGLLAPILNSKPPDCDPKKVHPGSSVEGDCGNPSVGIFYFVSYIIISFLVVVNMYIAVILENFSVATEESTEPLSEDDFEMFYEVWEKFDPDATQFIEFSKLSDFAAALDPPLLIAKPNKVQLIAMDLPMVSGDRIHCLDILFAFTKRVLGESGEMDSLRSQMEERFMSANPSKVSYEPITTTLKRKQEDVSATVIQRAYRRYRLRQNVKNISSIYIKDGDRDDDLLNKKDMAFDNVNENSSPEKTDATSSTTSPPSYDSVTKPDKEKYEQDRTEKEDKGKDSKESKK
- protocol: Nav1.7 block, PatchXpress 7000 automated whole-cell voltage clamp, estimated IC50 (EIC50)
- Type: cell-based
- condition: estimated IC50; hSCN9A HEK cells, PatchXpress platform; Examples 283-814
reported_metric: IC50 (nM)
Answers are plain numbers, in nM.

compound	IC50 / nM
Cc1cccnc1-c1ccc(Oc2ccc(S(=O)(=O)Nc3nccs3)cc2C#N)cc1 [Example 455]	2300
N#Cc1cc(S(=O)(=O)Nc2nccs2)ccc1Oc1ccc(Cl)cc1CN1CCC(F)(F)C1 [Example 360]	330

Below: the item to evaluate.
Return IC50 for the following compound: N#Cc1cc(S(=O)(=O)Nc2ncns2)ccc1Oc1ccc(Cl)cc1C1CCNCC1 [Example 505]
50

====

- measurement_target: Nav1.7 (or SCN9A) channel; HEK cells stably transfected with hSCN9A (Homo sapiens)
- Construct: expressed in transfected cells
- protocol: Nav1.7 block, PatchXpress 7000 automated whole-cell voltage clamp, estimated IC50 (EIC50)
- Type: cell-based
- condition: estimated IC50; hSCN9A HEK cells, PatchXpress platform; Examples 283-814
I'd be grateful if you could share measured IC50 for these entries.
Numbers only, in nM.

Here's what some known entries look like.
compound	IC50 [nM]
O=S(=O)(Nc1ncc(Cl)s1)c1cc(F)c(Oc2ccc(F)cc2-c2cn[nH]c2)cc1F [Example 614]	180
CC(C)Cc1ccc(Oc2ccc(S(=O)(=O)Nc3nccs3)cc2F)c(-c2ccnn2C)c1 [Example 723]	64

# per-item lookup of IC50; items listed below
1. N#Cc1cc(S(=O)(=O)Nc2nccs2)ccc1Oc1ccc(Br)cc1CN1CCCC1 [Example 355]
2. Nc1[nH]ncc1-c1cc(Cl)ccc1Oc1cc(F)c(S(=O)(=O)Nc2ncns2)cc1Cl [Example 794]

400
4.8

Return IC50 for the following compound: Cc1cc(S(=O)(=O)Nc2cscn2)ccc1Oc1ccccc1-c1ccnn1C [Example 628]
1000

====

- measurement_target: Nav1.7 (or SCN9A) channel; HEK cells stably transfected with hSCN9A (Homo sapiens)
- Construct: expressed in transfected cells
- protocol: Nav1.7 block, PatchXpress 7000 automated whole-cell voltage clamp, estimated IC50 (EIC50)
- Format: cell-based
- condition: estimated IC50; hSCN9A HEK cells, PatchXpress platform; Examples 283-814
reported_metric: IC50 (nM)
Give bare numbers, in nM.

Here's what some known entries look like.
query_smiles	measurement_target	unit_of_measure	IC50
Cn1nc(C(F)(F)F)cc1-c1ccc(F)c(Oc2ccc(S(=O)(=O)Nc3nccs3)cc2C#N)c1	Nav1.7 (or SCN9A) channel; HEK cells stably transfected with hSCN9A (Homo sapiens)	nM	210
Cn1nccc1-c1cc(Cl)ccc1Oc1cc(F)c(S(=O)(=O)Nc2nncs2)cc1F	Nav1.7 (or SCN9A) channel; HEK cells stably transfected with hSCN9A (Homo sapiens)	nM	280
Cn1nc(C(F)(F)F)cc1-c1cc(F)c(F)c(Oc2ccc(S(=O)(=O)Nc3nccs3)cc2C#N)c1	Nav1.7 (or SCN9A) channel; HEK cells stably transfected with hSCN9A (Homo sapiens)	nM	970
O=S(=O)(Nc1cscn1)c1ccc(Oc2ccc(OC(F)(F)F)cc2-c2cn[nH]c2)c(F)c1	Nav1.7 (or SCN9A) channel; HEK cells stably transfected with hSCN9A (Homo sapiens)	nM	540
O=S(=O)(Nc1ncc(F)s1)c1ccc(Oc2ccc(Cl)cc2-c2cn[nH]c2)c(F)c1	Nav1.7 (or SCN9A) channel; HEK cells stably transfected with hSCN9A (Homo sapiens)	nM	88
O=S(=O)(Nc1nccs1)c1cc(F)c(Oc2ccc(OC(F)(F)F)cc2-c2cn[nH]c2)cc1F	Nav1.7 (or SCN9A) channel; HEK cells stably transfected with hSCN9A (Homo sapiens)	nM	12

Below: the item to evaluate.
Return IC50 for the following molecule: N#Cc1cc(S(=O)(=O)Nc2cscn2)ccc1Oc1ccc(Cl)cc1-c1ccnn1C1CCNCC1
88
